Assay: qHTS assay to identify small molecule antagonists of the retinoic acid receptor (RAR) signaling pathway (AID 1159552; further: nearly all actives have a fitted effect of over 50% in size)
Conditions: C3RL4 RARE luciferase reporter, retinol-stimulated, 6 h; series mostly up to 92.4 µM
Text: National Center for Advancing Translational Sciences [NCATS] NIH Chemical Genomics Center [NCGC] U.S. Environmental Protection Agency [EPA] National Institutes of Environmental Health Sciences [NIEHS] National Toxicology Program [NTP] U.S. Food and Drug Administration [FDA] […]
Results filed as inconclusive are left out. The source made the active and inactive calls. The call rests on the fitted dose curve; in most records, active means well fitted inhibition curve with a large enough effect in the repeat runs; inconclusive means weak or mixed curves, or effect the other way; inactive means no such curve, though single readings can be large or run the other way.
endpoint: outcome

As a guide, the following entries are already answered.
{"columns": ["compound", "endpoint", "obs-value"],
 "data": [
  ["CCCCCCCO", "outcome", "inactive"],
  ["COC(=O)CCCC(=O)OC", "outcome", "inactive"],
  ["O=C(O)c1ccccc1C(=O)O", "outcome", "inactive"],
  ["CCOC(=O)n1ccn(C)c1=S", "outcome", "inactive"],
  ["CC(CCl)OP(=O)(OC(C)CCl)OC(C)CCl (stereo not drawn)", "outcome", "inactive"]
]}

Enquiry: Tell me the measured outcome of CC(C)CCCCCCCOC(=O)CCCCC(=O)OCCCCCCCC(C)C , please.
Return: inactive

Enquiry: Tell me the measured outcome of Cc1ccc2ncccc2c1 , please.
Return: inactive

Enquiry: Tell me the measured outcome of C=CC[N+](C)(C)CC=C , please.
Return: inactive

Enquiry: Tell me the measured outcome of CC1(C)NC(=O)NC1=O , please.
Return: inactive

Enquiry: Tell me the measured outcome of CC(=O)CCC=C(C)C , please.
Return: inactive

Enquiry: Tell me the measured outcome of CC(CCO)CC(C)(C)C (stereo not drawn) , please.
Return: inactive

Enquiry: Tell me the measured outcome of O=C1c2ccccc2CCc2ccccc21 , please.
Return: inactive

Enquiry: Tell me the measured outcome of Brc1ccc(Br)c(Br)c1 , please.
Return: inactive

====

Target: Progesterone receptor (Homo sapiens) (UniProt P06401)
Sequence (P06401 whole entry, looked up): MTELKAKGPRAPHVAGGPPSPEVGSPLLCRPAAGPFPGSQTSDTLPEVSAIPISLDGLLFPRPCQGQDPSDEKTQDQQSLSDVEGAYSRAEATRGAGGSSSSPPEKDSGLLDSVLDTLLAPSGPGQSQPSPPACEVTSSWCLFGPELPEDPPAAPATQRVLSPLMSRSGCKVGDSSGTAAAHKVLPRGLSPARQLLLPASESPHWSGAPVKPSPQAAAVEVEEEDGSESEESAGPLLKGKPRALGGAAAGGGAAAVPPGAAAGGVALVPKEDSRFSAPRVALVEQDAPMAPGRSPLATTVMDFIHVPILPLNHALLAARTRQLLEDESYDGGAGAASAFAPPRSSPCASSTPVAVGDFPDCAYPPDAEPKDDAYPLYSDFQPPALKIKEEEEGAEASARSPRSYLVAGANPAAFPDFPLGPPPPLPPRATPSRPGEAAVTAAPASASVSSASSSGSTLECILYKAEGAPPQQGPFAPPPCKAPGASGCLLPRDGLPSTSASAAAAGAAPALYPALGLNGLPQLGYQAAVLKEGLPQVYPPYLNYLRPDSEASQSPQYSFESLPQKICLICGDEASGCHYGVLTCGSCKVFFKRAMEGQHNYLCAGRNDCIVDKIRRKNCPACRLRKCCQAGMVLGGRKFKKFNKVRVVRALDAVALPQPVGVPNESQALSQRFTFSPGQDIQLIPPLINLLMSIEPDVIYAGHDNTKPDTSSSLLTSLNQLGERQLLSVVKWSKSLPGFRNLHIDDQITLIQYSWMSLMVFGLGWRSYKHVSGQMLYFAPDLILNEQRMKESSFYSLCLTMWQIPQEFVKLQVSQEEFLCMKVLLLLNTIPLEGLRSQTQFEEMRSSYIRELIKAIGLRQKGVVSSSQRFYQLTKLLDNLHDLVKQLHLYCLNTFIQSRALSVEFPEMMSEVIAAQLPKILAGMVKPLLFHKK
Experiment: qHTS assay to identify small molecule agonists of the progesterone receptor (PR) signaling pathway (AID 1346784); further: nearly all actives have a fitted effect of over 30% in size
Settings: PR-UAS-bla HEK293T, beta-lactamase FRET ratio, 16 h; series mostly up to 92.4 µM
Inconclusive results are not listed. Activity calls are given as the source filed them. Calls follow the shape of the full dose curve.
endpoint: outcome

As a guide, the following entries are already answered.
{"columns": ["mol", "endpoint", "obs-value"],
 "data": [
  ["CCCCCCCO", "outcome", "inactive"],
  ["O=C(O)c1ccc(C(=O)O)c(C(=O)O)c1", "outcome", "inactive"],
  ["CC1(C)OC[C@@H]2O[C@@]3(C(=O)O)OC(C)(C)O[C@H]3[C@@H]2O1", "outcome", "inactive"],
  ["CCOCCOCCOCCO", "outcome", "inactive"],
  ["Cc1ccc2ncccc2c1", "outcome", "inactive"]
]}

Enquiry: Tell me the measured outcome of CN(C)c1ccc(O)c2c1C[C@H]1C[C@H]3[C@H](N(C)C)C(=O)C(C(N)=O)=C(O)[C@@]3(O)C(=O)C1=C2O , please.
Return: inactive

Enquiry: Tell me the measured outcome of O=C(O)c1ccc(S(=O)(=O)N(Cl)Cl)cc1 , please.
Return: inactive

Enquiry: Tell me the measured outcome of CN/C(=C\[N+](=O)[O-])NCCSCc1csc(CN(C)C)n1 , please.
Return: inactive

====

Assay: qHTS assay to test for compound auto fluorescence at 590 nm (red) in HEK293 cell free culture (AID 720683)
Conditions: cell-free medium autofluorescence, Ex540/Em590 red; series mostly up to 91.3 µM
Description: U.S. Tox21 Program National Center for Advancing Translational Sciences [NCATS] NIH Chemical Genomics Center [NCGC] U.S. Environmental Protection Agency [EPA] National Institutes of Environmental Health Sciences [NIEHS] National Toxicology Program [NTP] U.S. Food and Drug Administration [FDA] Tox21 Assay Overview: Compound auto fluorescence often interferes with screening of the compound library against various biological targets and signaling pathways. […] This assay includes the red fluorescence data. […]
The source made the active and inactive calls. The call rests on the fitted dose curve; in most records, active means well fitted curve in the direction sought with a large enough effect in the repeat runs; inconclusive means weak or mixed curves; inactive means flat fitted curve, though single readings scatter.

{"columns": ["mol", "outcome"],
 "data": [
  ["Nc1nc(N)nc(-c2ccccc2)n1", "inactive"],
  ["Cc1ccc2ncccc2c1", "inactive"],
  ["O=C(O)c1ccc(C(=O)O)c(C(=O)O)c1", "inactive"]
]}

====

Molecular target: Cytochrome P450 2C9 (Homo sapiens) (UniProt P11712)
Sequence (P11712 whole entry, looked up): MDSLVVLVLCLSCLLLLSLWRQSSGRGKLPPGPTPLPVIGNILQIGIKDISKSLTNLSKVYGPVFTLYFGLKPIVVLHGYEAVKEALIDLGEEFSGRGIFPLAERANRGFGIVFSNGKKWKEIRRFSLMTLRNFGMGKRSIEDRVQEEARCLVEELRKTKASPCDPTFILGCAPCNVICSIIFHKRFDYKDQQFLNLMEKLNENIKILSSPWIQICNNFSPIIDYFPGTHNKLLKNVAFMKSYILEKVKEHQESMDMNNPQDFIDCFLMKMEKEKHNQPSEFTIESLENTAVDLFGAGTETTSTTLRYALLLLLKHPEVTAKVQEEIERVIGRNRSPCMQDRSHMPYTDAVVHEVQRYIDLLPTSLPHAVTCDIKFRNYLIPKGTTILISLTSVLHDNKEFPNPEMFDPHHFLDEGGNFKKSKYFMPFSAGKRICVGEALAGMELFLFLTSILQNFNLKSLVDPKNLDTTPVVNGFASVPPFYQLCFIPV
Test: Cytochrome P450 Family 2 Subfamily C Member 9 (CYP2C9) small molecule antagonists: luciferase reporter qHTS assay (AID 1671198); further: nearly all actives have a fitted effect of over 50% in size
Details: P450-Glo CYP2C9 enzyme assay, luciferin luminescence; series mostly up to 115 µM
Results filed as inconclusive are left out. Active and inactive are the calls of the source. The call rests on the fitted dose curve; in most records, active means well fitted inhibition curve with a large enough effect in the repeat runs; inconclusive means weak or mixed curves; inactive means no such curve, though single readings can be large or run the other way.
Select the matching outcome among active, inactive

{"columns": ["compound", "answer-label"],
 "data": [
  ["CC(=O)Oc1ccc(C)cc1", "inactive"],
  ["CC1(C)CC(N)CC(C)(CN)C1 (stereo not given)", "inactive"],
  ["CCCCCC(=O)O", "inactive"]
]}

Enquiry: For this compound, state the assay outcome: CC(C)CCCCCCCOC(=O)CCCCC(=O)OCCCCCCCC(C)C
Return: inactive

Enquiry: For this compound, state the assay outcome: CCCCCCCO
Return: inactive

====

Biological target: Cytochrome P450 2D6 (Homo sapiens) (UniProt P10635)
Sequence (P10635 whole entry, looked up): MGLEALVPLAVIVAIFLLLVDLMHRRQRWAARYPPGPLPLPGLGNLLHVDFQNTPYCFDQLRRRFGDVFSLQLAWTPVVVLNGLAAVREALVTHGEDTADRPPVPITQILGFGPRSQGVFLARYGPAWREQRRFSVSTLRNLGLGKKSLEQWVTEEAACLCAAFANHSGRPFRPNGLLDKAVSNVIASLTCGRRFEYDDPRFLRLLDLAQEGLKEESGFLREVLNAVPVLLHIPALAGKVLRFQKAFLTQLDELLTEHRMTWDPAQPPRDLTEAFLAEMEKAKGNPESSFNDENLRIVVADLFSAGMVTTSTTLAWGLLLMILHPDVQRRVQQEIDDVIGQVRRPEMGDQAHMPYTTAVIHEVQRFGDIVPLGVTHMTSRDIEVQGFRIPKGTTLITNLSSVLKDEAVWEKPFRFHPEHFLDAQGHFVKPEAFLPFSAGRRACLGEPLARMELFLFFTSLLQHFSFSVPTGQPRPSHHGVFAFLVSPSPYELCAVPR
Assay: Cytochrome P450 Family 2 Subfamily D Member 6 (CYP2D6) small molecule antagonists: luciferase reporter qHTS assay (AID 1671196); further: nearly all actives have a fitted effect of over 50% in size
Conditions: P450-Glo CYP2D6 enzyme assay, luciferin luminescence, 1 h; series mostly up to 115 µM
Results filed as inconclusive are left out. The source made the active and inactive calls. Calls come from the whole dose curve; as a rule, active = well fitted inhibition curve with a large enough effect in the repeat runs; inconclusive = weak or mixed curves; inactive = no such curve, though single readings can be large or run the other way.
Select the matching outcome among active, inactive

Enquiry: For this compound, state the assay outcome: Cc1ccc(S(=O)(=O)N=C=O)cc1
Return: inactive

Enquiry: For this compound, state the assay outcome: CCCCCC(=O)O
Return: inactive

Enquiry: For this compound, state the assay outcome: Nc1nc(N)nc(-c2ccccc2)n1
Return: inactive

Enquiry: For this compound, state the assay outcome: O=c1[nH]cnc2[nH]ncc12
Return: inactive

Enquiry: For this compound, state the assay outcome: CC(CCO)CC(C)(C)C (centres undefined)
Return: inactive

Enquiry: For this compound, state the assay outcome: CC(=O)c1ccc(O)cc1
Return: inactive

Enquiry: For this compound, state the assay outcome: CN(C)c1ccc(Cc2ccc(N(C)C)cc2)cc1
Return: active

Enquiry: For this compound, state the assay outcome: CSc1ccc(Cl)cc1
Return: inactive

Enquiry: For this compound, state the assay outcome: CC(C)CC(=O)CC(C)CC(C)C (centres undefined)
Return: inactive

====

Target: Progesterone receptor (Homo sapiens) (UniProt P06401)
Experiment: qHTS assay to identify small molecule agonists of the progesterone receptor (PR) signaling pathway (AID 1346784); further: nearly all actives have a fitted effect of over 30% in size
Details: PR-UAS-bla HEK293T, beta-lactamase FRET ratio, 16 h; series mostly up to 92.4 µM
Inconclusive results are not listed. Activity calls are given as the source filed them. Calls come from the whole dose curve.
Select the matching outcome among YES for active, NO for inactive

{"columns": ["molecule", "assay-target", "answer-label"],
 "data": [
  ["CCOC(=O)n1ccn(C)c1=S", "Progesterone receptor (Homo sapiens) (UniProt P06401)", "NO"]
]}

We now examine a further molecule.
Enquiry: For this molecule, state the assay outcome: CC(C)(Oc1ccc(CCNC(=O)c2ccc(Cl)cc2)cc1)C(=O)O
Return: NO

====

Assay: qHTS assay to test for compound auto fluorescence at 590 nm (red) in HepG2 cells (AID 720674)
Settings: HepG2 autofluorescence, red 540/590 nm, 1 h; series mostly up to 91.3 µM
Calls of active or inactive are those of the source. Calls follow the shape of the dose curve; as a rule, active = well fitted curve in the direction sought with a large enough effect in the repeat runs; inconclusive = weak or mixed curves; inactive = flat fitted curve, though single readings scatter.
endpoint: outcome

{"columns": ["molecule", "outcome"],
 "data": [
  ["CCCCC(C=O)CC (stereo unspecified)", "inactive"],
  ["O=C(O)c1ccc(S(=O)(=O)N(Cl)Cl)cc1", "inactive"],
  ["CC1(C)S[C@@H]2[C@H](NC(=O)COc3ccccc3)C(=O)N2[C@H]1C(=O)O", "inactive"],
  ["Nc1nc(N)nc(-c2ccccc2)n1", "inactive"],
  ["C=C(C)CNCC", "inactive"],
  ["CCCCCCO", "inactive"]
]}

Enquiry: Tell me the measured outcome of CC(CCl)OP(=O)(OC(C)CCl)OC(C)CCl (stereo unspecified) , please.
Return: inactive

Enquiry: Tell me the measured outcome of C=C(C)[C@H]1CC=C(C)C(=O)C1 , please.
Return: inactive

Enquiry: Tell me the measured outcome of c1ccc(Oc2ccccc2)cc1 , please.
Return: inactive

Enquiry: Tell me the measured outcome of O=S(=O)(O)c1ccc(N=Nc2c(O)ccc3cc(S(=O)(=O)O)ccc23)cc1 , please.
Return: inactive

Enquiry: Tell me the measured outcome of NC(=S)NNC(N)=S , please.
Return: inactive

Enquiry: Tell me the measured outcome of C=C(C)C(=O)OCC(C)C , please.
Return: inactive
